test system: Rattus norvegicus; experiment: Percentage change in volume of pleural fluid in the 5-h Evans Blue-Carrageenan pleural assay for the compound at dose 4 mg/kg; assay type: functional
endpoint-name: Change (%)
Express the result in % but write the number alone.

Problem: Which measured Change value corresponds to CC(Nc1ccccc1C(=O)c1ccc(Cl)cc1Cl)C(=O)O (stereo not given) ?
Solution: -3

Problem: Which measured Change value corresponds to Cc1ccc(C(=O)c2ccccc2NC(C)C(=O)O)cc1 (stereo not given) ?
Solution: -8

Problem: Which measured Change value corresponds to CC(Nc1ccc(Cl)cc1C(=O)c1ccccc1)C(=O)O (stereo not given) ?
Solution: 6

Problem: Which measured Change value corresponds to CC(Nc1ccccc1C(=O)c1ccc(Br)cc1)C(=O)O (stereo not given) ?
Solution: -3

Problem: Which measured Change value corresponds to COc1ccc(C(=O)c2ccccc2NC(C)C(=O)O)cc1 (stereo not given) ?
Solution: -9

---

system: Rattus norvegicus; assay: Percentage change in volume of pleural fluid in the 5-h Evans Blue-Carrageenan pleural assay for Indomethacin 4.0 mg/kg; assay type: functional
Under this convention, 1 denotes Change strictly below -30% and -1 denotes Change at or above -30%.

Problem: Decide: Change of Cc1ccc(C(=O)c2ccccc2)c(NC(C)C(=O)O)c1 (stereo not given) strictly below -30%?
Solution: -1

Problem: Decide: Change of Cc1ccc(C(=O)c2ccccc2NC(C)C(=O)O)cc1 (stereo not given) strictly below -30%?
Solution: 1

Problem: Decide: Change of CC(Nc1ccccc1C(=O)c1ccc(Br)cc1)C(=O)O (stereo not given) strictly below -30%?
Solution: -1

Problem: Decide: Change of CN(CC(=O)O)c1ccccc1C(=O)c1ccccc1.Cl strictly below -30%?
Solution: 1

Problem: Decide: Change of CC(Nc1cccc(C(=O)c2ccccc2)c1)C(=O)O.Cl (stereo not given) strictly below -30%?
Solution: 1

Problem: Decide: Change of O=C(O)CCNc1ccccc1C(=O)c1ccccc1 strictly below -30%?
Solution: 1

Problem: Decide: Change of COc1ccc(C(=O)c2ccccc2NC(C)C(=O)O)cc1 (stereo not given) strictly below -30%?
Solution: 1

Problem: Decide: Change of CC(Nc1ccc(C(=O)c2ccccc2)cc1)C(=O)O (stereo not given) strictly below -30%?
Solution: 1

Problem: Decide: Change of CC(Nc1ccccc1C(=O)c1ccc(Cl)cc1Cl)C(=O)O (stereo not given) strictly below -30%?
Solution: 1

---

test system: Rattus norvegicus; assay: Percentage change in volume of pleural fluid in the 5-h Evans Blue-Carrageenan pleural assay for the compound at dose 100 mg/kg; format: functional
endpoint-name: Change
Remember to follow the number with its unit.

Problem: Which measured Change value corresponds to CC(Nc1ccccc1C(=O)c1ccc(Br)cc1)C(=O)O (stereo not drawn) ?
Solution: -29%

Problem: Which measured Change value corresponds to CC(Nc1ccccc1C(=O)c1ccc(Cl)cc1Cl)C(=O)O (stereo not drawn) ?
Solution: -34%

Problem: Which measured Change value corresponds to Cc1ccc(C(=O)c2ccccc2NC(C)C(=O)O)cc1 (stereo not drawn) ?
Solution: -21%

All values here come from ChEMBL document CHEMBL1122614.
